- Measured target: human recombinant 5-HT2C receptor (Homo sapiens, UniProt P28335)
- Construct: expressed in transfected cells
- Sequence (P28335 33-458): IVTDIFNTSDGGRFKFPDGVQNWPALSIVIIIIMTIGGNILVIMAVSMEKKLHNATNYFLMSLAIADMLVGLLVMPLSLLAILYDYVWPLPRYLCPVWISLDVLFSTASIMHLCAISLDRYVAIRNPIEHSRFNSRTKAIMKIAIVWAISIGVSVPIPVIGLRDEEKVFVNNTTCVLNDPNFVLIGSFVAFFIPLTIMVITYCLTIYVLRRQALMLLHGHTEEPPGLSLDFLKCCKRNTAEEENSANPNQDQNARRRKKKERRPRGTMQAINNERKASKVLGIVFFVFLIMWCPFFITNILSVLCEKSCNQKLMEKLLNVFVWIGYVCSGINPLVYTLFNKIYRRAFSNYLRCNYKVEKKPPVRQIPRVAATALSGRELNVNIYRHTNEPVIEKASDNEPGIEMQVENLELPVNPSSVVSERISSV
- Experiment description: [3H]Mesulergine binding to serotonin 5-HT2C receptor
- Particulars: [3H]Mesulergine (1 nM); membranes from CHO-K1 cell line expressing human recombinant 5-HT2C receptor; 30 min at 37° C.; read-out: Affinity for 5-HT2C receptor (IC50)
Metric: IC50 (nM)
Numbers only here, please. The scale is nM.

Recorded IC50, per entry:
// query IC50 value for entry `Cn1ncc2c(Nc3ccc(F)cc3)nc(N3CCN(CCO)CC3)nc21` 494

Same read-out for `CCN(CC)c1nc(Nc2ccccc2C)c2cnn(C)c2n1` ? 242

Please examine the following record next.
// query IC50 value for entry `Cn1ncc2c(Nc3ccc(F)cc3)nc(NC3CCCCC3)nc21` 5710
